- assay_protocol: recombinant UMI read abundance after kanamycin selection (control-corrected) (log10(CPM+1)); higher = more efficient recombination; extreme values may be limits of the assay; sequences stand for … in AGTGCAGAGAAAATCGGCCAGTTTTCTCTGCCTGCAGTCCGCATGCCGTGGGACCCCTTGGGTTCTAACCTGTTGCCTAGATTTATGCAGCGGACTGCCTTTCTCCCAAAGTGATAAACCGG…AGGTTGGTTTCACT; site = the 11-nt donor;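 further: IS621 bridge recombinase in Escherichia coli cells against a fixed T5 target plasmid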
# recombinant UMI read abundance (log10) listing for each entry below
attribute_measured: recombinant UMI read abundance (log10)

[[record]]
residue_string = "GCTTGCCCATGGACCGGTTTTCCCGGTAATCCGTATTTGAT (site GGTTGCCCTAT)"
attribute_measured = "recombinant UMI read abundance (log10)"
result = 0.0122

[[record]]
residue_string = "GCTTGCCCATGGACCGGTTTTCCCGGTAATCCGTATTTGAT (site GCTTGCCCTAG)"
attribute_measured = "recombinant UMI read abundance (log10)"
result = 0

[[record]]
residue_string = "GACCGGGCATGGACCGGTTTTCCCGGTAATCCGTATTTGAT (site GACCGGGCTAT)"
attribute_measured = "recombinant UMI read abundance (log10)"
result = 0.662

[[record]]
residue_string = "GGCAATACATGGACCGGTTTTCCCGGTAATCCGTATTTGAA (site GGCAATACTTT)"
attribute_measured = "recombinant UMI read abundance (log10)"
result = 0.862

[[record]]
residue_string = "CCGTTAGCATGGACCGGTTTTCCCGGTAATCCGTATTTGGG (site CCGTTAGCTCA)"
attribute_measured = "recombinant UMI read abundance (log10)"
result = 0.0109

[[record]]
residue_string = "CGACCGACATGGACCGGTTTTCCCGGTAATCCGTATTTGTT (site CGACCGACTAA)"
attribute_measured = "recombinant UMI read abundance (log10)"
result = 0.195

[[record]]
residue_string = "CCAATTACATGGACCGGTTTTCCCGGTAATCCGTATTTGCC (site CCAATTACTGG)"
attribute_measured = "recombinant UMI read abundance (log10)"
result = 0

[[record]]
residue_string = "ACCTCGACATGGACCGGTTTTCCCGGTAATCCGTATTTGGG (site ACCTGGACTCC)"
attribute_measured = "recombinant UMI read abundance (log10)"
result = 0.0333

[[record]]
residue_string = "CCATCTACATGGACCGGTTTTCCCGGTAATCCGTATTTGTG (site TCATCTACTCA)"
attribute_measured = "recombinant UMI read abundance (log10)"
result = 0

